# credit: patent US20170355705A1

- assay_target: SIRT1 (Homo sapiens)
- Sequence (Q96EB6 whole entry): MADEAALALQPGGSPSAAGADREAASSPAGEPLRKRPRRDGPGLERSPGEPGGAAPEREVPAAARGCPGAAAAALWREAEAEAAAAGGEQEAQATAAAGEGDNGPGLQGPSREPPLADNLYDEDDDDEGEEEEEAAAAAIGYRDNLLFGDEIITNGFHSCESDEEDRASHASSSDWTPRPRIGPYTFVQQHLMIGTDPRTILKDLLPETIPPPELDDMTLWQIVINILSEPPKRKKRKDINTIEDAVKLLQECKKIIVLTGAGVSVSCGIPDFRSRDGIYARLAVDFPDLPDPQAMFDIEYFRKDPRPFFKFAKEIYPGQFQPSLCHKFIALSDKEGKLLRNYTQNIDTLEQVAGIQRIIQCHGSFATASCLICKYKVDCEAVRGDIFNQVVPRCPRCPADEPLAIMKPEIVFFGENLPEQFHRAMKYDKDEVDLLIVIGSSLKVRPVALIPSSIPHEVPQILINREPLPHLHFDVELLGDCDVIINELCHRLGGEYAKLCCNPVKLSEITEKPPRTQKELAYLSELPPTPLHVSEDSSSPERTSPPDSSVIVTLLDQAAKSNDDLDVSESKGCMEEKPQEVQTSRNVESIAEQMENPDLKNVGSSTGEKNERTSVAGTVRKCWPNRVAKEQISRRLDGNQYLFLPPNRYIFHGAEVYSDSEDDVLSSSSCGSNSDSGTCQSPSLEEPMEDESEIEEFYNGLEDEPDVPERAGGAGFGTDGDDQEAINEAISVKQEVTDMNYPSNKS
- test_summary: Trp mass spectrometry assay of SIRT1 activity (EC1.5, percent maximum activation)
- Format: biochemical
- condition_notes: Trp mass spectrometry assay; EC1.5 = concentration giving 150% activation of SIRT1
readout_kind: TRP Activity (EC1.5)

[
  {
    "smiles_code": "Cc1cc(-c2ccc3c(n2)N(C(=O)N2CCN(C)CC2)[C@H]2CCN3C2)ccn1",
    "result": "C (EC1.5>25 μM)"
  },
  {
    "smiles_code": "O=C(Nc1cc(OC[C@@H](O)CO)ncn1)N1c2nc(-c3cccc(C(F)(F)F)c3)c(Cl)cc2N2CC[C@H]1C2",
    "result": "B (EC1.5 1-25 μM)"
  },
  {
    "smiles_code": "Cc1cc(-c2nc3c(cc2Cl)N2CC[C@@H](C2)N3C(=O)Nc2ccnc(O[C@H]3CCOC3)n2)ccn1",
    "result": "C (EC1.5>25 μM)"
  },
  {
    "smiles_code": "Cc1cc(-c2nc3c(cc2C)N2CC[C@@H](C2)N3C(=O)Nc2ccccn2)ccn1",
    "result": "B (EC1.5 1-25 μM)"
  }
]
